Examples of compounds with documented residual activity follow.
system.tested: MAP4K4 (human)
measurement.description: radiometric filter-binding kinase assay, Kinase HotSpot
condition.label: compound 0.5 µM; ATP 10 µM

chem.smiles	residual activity [%]
O=C1Nc2ccc(Cl)cc2/C1=C/c1cc(Cl)c(O)c(Cl)c1	4.48
CC(C)N(CCC(=O)c1ccc2ccccc2c1)Cc1ccccc1	96.7
CC[n+]1c(/C=C/N(C)c2ccccc2)n(-c2ccccc2)c2ccc(-c3nc4ccccc4s3)cc21	110
O=C(Nc1cccc(Nc2nccc(Nc3cccc(C(F)(F)F)c3)n2)c1)C1CC1	92.4
N#CC(C#N)=C(N)/C(C#N)=C/c1ccc(O)cc1	91.2
Cc1ccc(NC2=CC(=O)c3sc(C)nc3C2=O)cc1	84.5
CCN(CC)C(=O)c1ccc(Nc2nc(OCC3CCCCC3)c3nc[nH]c3n2)cc1	85.9
CC#CC(=O)Nc1cc2c(Nc3ccc(F)c(Cl)c3)ncnc2cn1	110
Nc1ncnc2[nH]nc(Nc3ccc(F)cc3)c12	59.4
COc1ccc(COc2ccc(Cc3cnc(N)nc3N)cc2OC)cc1	99
Cc1ccc(Nc2nccc(N(C)c3ccc4c(C)n(C)nc4c3)n2)cc1S(N)(=O)=O	77.4

---

system.tested: NEK3 (human)
measurement.description: radiometric filter-binding kinase assay, Kinase HotSpot
condition.label: compound 0.5 µM; ATP 10 µM
Listed molecules paired with reported residual activity
property.label: residual activity (%)

molecule	property.label	quantitative.result
CC(=O)c1ccc(N2CCOCC2)cc1O	residual activity	103
O=C(Nc1cccc(Nc2nccc(Nc3cccc(C(F)(F)F)c3)n2)c1)C1CC1	residual activity	95.8
Cc1ccc(S(=O)(=O)/C=C/C#N)cc1	residual activity	108
Cc1ccc(Nc2nccc(N(C)c3ccc4c(C)n(C)nc4c3)n2)cc1S(N)(=O)=O	residual activity	94.2
CC#CC(=O)Nc1cc2c(Nc3ccc(F)c(Cl)c3)ncnc2cn1	residual activity	76.2
CCOC(=O)c1c(C)[nH]c(/C=C2\C(=O)Nc3ccccc32)c1C	residual activity	101
CO[C@H]1CC2CC[C@@H](C)[C@@](O)(O2)C(=O)C(=O)N2CCCC[C@H]2C(=O)OC([C@H](C)C[C@@H]2CC[C@@H](O)[C@H](OC)C2)CC(=O)[C@H](C)/C=C(\C)[C@@H](O)[C@@H](OC)C(=O)[C@H](C)C[C@H](C)/C=C/C=C/C=C/1C (some centres undefined)	residual activity	99
CCCC(=O)Oc1ccc2[nH]c(C(=O)c3cc4ccccc4[nH]3)cc2c1	residual activity	95.5
COc1ccc2c(c[n+](C)c3c4cc5c(cc4ccc23)OCO5)c1OC	residual activity	95.1

---

In this section, each of the compounds is paired with its reported residual activity.
system.tested: MAPK9 (human) (UniProt P45984)
Sequence (P45984 whole entry, looked up): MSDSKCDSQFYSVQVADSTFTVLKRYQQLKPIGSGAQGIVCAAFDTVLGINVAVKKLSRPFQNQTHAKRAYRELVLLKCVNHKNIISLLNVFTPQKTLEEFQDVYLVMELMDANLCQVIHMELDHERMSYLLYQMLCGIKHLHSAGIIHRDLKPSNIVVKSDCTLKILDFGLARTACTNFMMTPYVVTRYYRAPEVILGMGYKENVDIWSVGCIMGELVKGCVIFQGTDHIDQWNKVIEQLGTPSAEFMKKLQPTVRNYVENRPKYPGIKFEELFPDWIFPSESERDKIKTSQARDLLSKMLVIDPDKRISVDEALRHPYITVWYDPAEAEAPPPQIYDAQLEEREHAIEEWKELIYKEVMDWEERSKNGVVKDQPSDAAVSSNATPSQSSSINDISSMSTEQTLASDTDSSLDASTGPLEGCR
measurement.description: radiometric filter-binding kinase assay, Kinase HotSpot
condition.label: compound 0.5 µM; ATP 10 µM

chem.smiles	unit.label	residual activity
CC(C)N(CCC(=O)c1ccc2ccccc2c1)Cc1ccccc1	%	100
CCOC(=O)c1c(C)[nH]c(/C=C2\C(=O)Nc3ccccc32)c1C	%	93.9
Nc1ncnc2[nH]nc(Nc3ccc(F)cc3)c12	%	103
CCN(CC)CCNC(=O)c1c(C)[nH]c(/C=C2\C(=O)Nc3ccc(Cl)cc32)c1C	%	109
COc1ccc(COc2ccc(Cc3cnc(N)nc3N)cc2OC)cc1	%	106
CNC(=O)c1cc(Oc2ccc(NC(=O)Nc3ccc(Cl)c(C(F)(F)F)c3)cc2)ccn1	%	94.8
Oc1cccc(-c2nc(N3CCOCC3)c3oc4ncccc4c3n2)c1	%	89.4
CC(=O)c1ccc(N2CCOCC2)cc1O	%	105
CCN(CC)CCNC(=O)c1c(C)[nH]c(/C=C2\C(=O)Nc3ccc(F)cc32)c1C	%	96.7
N#CC(C#N)=C(N)/C(C#N)=C/c1ccc(O)cc1	%	105
CC#CC(=O)Nc1cc2c(Nc3ccc(F)c(Cl)c3)ncnc2cn1	%	91.8
O=S(=O)(c1cccc2cnccc12)N1CCCNCC1	%	87
COc1ccc2c(c[n+](C)c3c4cc5c(cc4ccc23)OCO5)c1OC	%	102
O=C1NC(=O)c2c1c1c3ccccc3n3c1c1c2c2ccccc2n1C1CCC3O1	%	96.1
COc1cc2ncnc(Nc3cccc(Cl)c3)c2cc1OC	%	92.2
N#C/C(=C(/N)Sc1ccc(N)cc1)c1ccccc1C(F)(F)F	%	110
c1ccc(-c2n[nH]c3c2oc2ccccc23)cc1	%	96.5
O=C1Nc2ccc(Cl)cc2/C1=C/c1cc(Cl)c(O)c(Cl)c1	%	100
Cc1ccc(NC2=CC(=O)c3sc(C)nc3C2=O)cc1	%	96.5
CNc1cc2c(Nc3cccc(Br)c3)ncnc2cn1	%	96.5
Nc1ccc2ncnc(NCCc3ccc(Oc4ccccc4)cc3)c2c1	%	85
Nc1ncnc2c1c(-c1ccc(Oc3ccccc3)cc1)cn2C1CCCC1	%	100
Nc1cccc(-c2cc3c(Oc4cccc(O)c4)ncnc3[nH]2)c1	%	111
O=C1NC(=O)/C(=C/c2ccc3c(c2)OC(F)(F)O3)S1	%	90.9
